method notes: Effect of food on plasma pharmacokinetics after single oral dose of SF2a/b (Example 2)
Assay type: in vivo, human
condition description: both sexes, human, plasma, oral, 200 mg, 200 mg SF2b, fed, low-fat, high-calorie breakfast; read-out: Cmax, Geometric LS Means Treatment O
endpoint: Cmax (ng/mL)

compound="COc1cc(NC(C(=O)c2c[nH]c3ccc(OC(F)(F)F)cc23)c2ccc(Cl)cc2OC)cc(S(C)(=O)=O)c1 (stereo not shown)" endpoint=Cmax reported_result=700

---

method notes: Effect of food on plasma pharmacokinetics after single oral dose of SF2a/b (Example 2)
Assay type: in vivo, human
condition description: both sexes, human, plasma, oral, 800 mg, Treatment E: single 800 mg (SF2b), fed, standardized breakfast; read-out: AUC∞, Mean
endpoint: AUC(0-inf) (µg·h/mL)

compound="COc1cc(NC(C(=O)c2c[nH]c3ccc(OC(F)(F)F)cc23)c2ccc(Cl)cc2OC)cc(S(C)(=O)=O)c1 (stereo not shown)" reported_result=348

The values you see were collected from patent US20250281457A1.
